system: sorghum; test: Herbicidal activity test against upland field weeds (foliar treatment test); assay type: in vivo; design: key: 0 (no control); 100 (complete control); conditions: 50 g ai/ha, scale 0-100
Endpoint Name: Foliar treatment herbicidal activity, Sorghum
# respond with the number and nothing more

Value lookup for Foliar treatment herbicidal activity, Sorghum; key = CCOC(=O)OC(C)n1nnn(C)c1=NC(=O)c1ccc(C(F)(F)F)nc1CSCc1nnn(C)n1 (centres unmarked)
100

How about Cn1nnc(CN(OCc2ccccc2)c2nc(C(F)(F)F)ccc2C(=O)Nc2nnnn2C)n1 ?
0

Cn1nnnc1NC(=O)c1ccc(C(F)(F)F)nc1COCc1nnnn1C(F)F , same question.
0

Then CCOC(=O)OC(C)N(C(=S)c1ccc(C(F)(F)F)nc1CSCc1nnn(C)n1)c1nnnn1C (centres unmarked) ?
70

Now consider Cn1nnc(COc2nc(C(F)(F)F)ccc2C(=O)Nc2nnnn2C)n1 .
0

// repeat for C#CCn1nnnc1NC(=O)c1ccc(C(F)(F)F)nc1COCc1nc(C(F)(F)F)n(C)n1 and report
0

What about this compound? CCCn1nnnc1NC(=O)c1ccc(C(F)(F)F)nc1COCc1nc(C(F)F)n(C)n1
40

What about Cn1nnc(CNc2nc(C(F)(F)F)ccc2C(=O)Nc2nnnn2C)n1 ?
0
